# target_under_test: T1, IFN-αWA (human, UniProt P05015 24-189)
# T1 construct: also called IFN-α16; alpha WA
# experimental_details: ProteOn, one antigen concentration
attribute_measured: pKd
The read-out pKd is expressed as -log10 of concentration in moles per litre.

Enquiry: For the binder IFWM3336 (antibody, V domains shown, VH IFWH591, VL IFWL1085; converted mAb; also called IFWB3071) VH: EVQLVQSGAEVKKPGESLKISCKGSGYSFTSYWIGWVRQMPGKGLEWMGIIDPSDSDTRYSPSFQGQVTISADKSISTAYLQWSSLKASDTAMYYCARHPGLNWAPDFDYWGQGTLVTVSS VL: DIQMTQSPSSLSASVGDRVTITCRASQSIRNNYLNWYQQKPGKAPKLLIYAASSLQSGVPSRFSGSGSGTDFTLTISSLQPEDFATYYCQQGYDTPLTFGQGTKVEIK , what pKd is on record?
Return: 9.98

Enquiry: Report pKd for IFWM3338 (antibody, V domains shown, VH IFWH591, VL IFWL1091; converted mAb; also called IFWB3073) VH: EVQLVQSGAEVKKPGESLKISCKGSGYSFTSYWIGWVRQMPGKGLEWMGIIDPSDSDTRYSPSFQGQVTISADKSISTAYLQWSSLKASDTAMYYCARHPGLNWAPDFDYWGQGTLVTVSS VL: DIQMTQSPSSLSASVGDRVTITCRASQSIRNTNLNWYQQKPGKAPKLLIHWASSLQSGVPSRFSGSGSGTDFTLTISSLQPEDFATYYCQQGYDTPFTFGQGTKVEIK please.
Return: 9.70

Enquiry: Look up pKd for this binder: IFWM3354 (antibody, V domains shown, VH IFWH624, VL IFWL1017; converted mAb; also called IFWB3089) VH: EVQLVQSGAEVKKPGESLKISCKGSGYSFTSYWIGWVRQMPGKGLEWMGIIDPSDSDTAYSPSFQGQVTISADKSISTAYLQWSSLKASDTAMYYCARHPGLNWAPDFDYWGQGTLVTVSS VL: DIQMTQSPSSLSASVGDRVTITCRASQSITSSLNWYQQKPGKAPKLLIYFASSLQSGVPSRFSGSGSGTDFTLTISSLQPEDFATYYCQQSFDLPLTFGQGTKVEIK
Return: 10.28

Sourced from patent US20150368338A1
